Assay: Stability of the analytes in rat plasma QC samples under different storage conditions
Type: physicochemical
Conditions: medium QC, 4 h at room temperature, n = 6
attribute measured: Stability (RE%) Short-Term
Answers are plain numbers, in %.

Sample records with Stability (RE%) Short-Term:
Enquiry: // Input: O=C(O)/C=C/c1ccc(O)c(O)c1 [Caffeic acid, caffeic acid] . Output its Stability (RE%) Short-Term only.
Return: −0.16

Enquiry: // Input: O=C(O)/C=C/c1ccc(O)cc1 [p-Coumaric acid, p-coumaric acid] . Output its Stability (RE%) Short-Term only.
Return: 1.57

Enquiry: // Input: O=C(O)c1ccc(O)c(O)c1 [3,4-Dihydroxy benzoic acid, 3,4-dihydroxybenzoic acid] . Output its Stability (RE%) Short-Term only.
Return: 10.18

Enquiry: // Input: COc1cc(C(=O)O)cc(OC)c1O [Syringic acid, syringic acid] . Output its Stability (RE%) Short-Term only.
Return: −1.50

Enquiry: // Input: COc1cc(C(=O)O)ccc1O [Vanillic acid, vanillic acid] . Output its Stability (RE%) Short-Term only.
Return: −0.67

# map each compound to its Stability (RE%) Short-Term
1. COc1cc(/C=C/C(=O)O)ccc1O [Ferulic acid, ferulic acid]
2. O=C(O)c1ccc(O)cc1 [4-Hydroxy benzoic acid, 4-hydroxybenzoic acid]

Return:
1. 4.61
2. −0.46
